- Tested on: MDA-MB-231
- assayOverview: NCI tumour cell line growth inhibition, 48 h
Activity calls are given as the source filed them. Rule as the data show it: active = GI50 up to about 1.1 µM and inactive = higher.
Classes used: Yes (active), No (inactive)

{"columns": ["compound", "assignedCategory"],
 "data": [
  ["Cc1ccc(-c2c(C#N)c(-c3ccc([N+](=O)[O-])cc3)c(C#N)c(=O)n2NS(=O)(=O)c2ccccc2)cc1", "No"],
  ["COc1ccc2[nH]c3ccc4cc[n+](CCN5CCC(C6CCN(CC[n+]7ccc8ccc9[nH]c%10ccc(OC)cc%10c9c8c7)CC6)CC5)cc4c3c2c1", "No"],
  ["N=C1OC(CN2CCN(c3ccccc3)CC2)CN1C(=S)Nc1ccccc1 (stereo not given)", "No"],
  ["CCCOc1cc2c(cc1O)CC[C@@H]1[C@@H]2CC[C@]2(C)[C@@H](O)CC[C@@H]12", "No"],
  ["O=Cc1c(C(=O)O)[nH]c(=O)[nH]c1=O", "No"],
  ["COc1ccc2c(c1)OCC1Cc3ccccc3OC21 (stereo not given)", "No"],
  ["Cc1ccc(S(=O)(=O)N2CCCN(S(=O)(=O)c3ccc(C)cc3)CCN(S(=O)(=O)c3ccc(C)cc3)CCCSCC2)cc1", "No"],
  ["Cc1sc2nc(N(C)C)oc(=O)c2c1C", "No"],
  ["CC[S+]([O-])C(=O)N(O)c1ccc(Cl)cc1 (stereo not given)", "No"],
  ["O=c1n(/N=C/c2ccccc2)c(=O)n2n1C1C=CC2CC1", "No"],
  ["c1ccc(C[n+]2ccc3c(c2)CCCC3)cc1", "No"],
  ["CCCCCN(CCCCC)CC(C)(C)C(O)c1ccc(OC)c2ccccc12 (stereo not given)", "No"],
  ["CCN1CCC(O)(/C=C/c2ccc(Cl)c(Cl)c2)C(C(=O)/C=C/c2ccc(Cl)c(Cl)c2)C1 (stereo not given)", "Yes"],
  ["CC(=O)OCCn1c(Cc2ccc([N+](=O)[O-])cc2)nn(C(C)=O)c1=O", "No"],
  ["COc1cc(N/N=C/C#N)cc(OC)c1OC", "No"],
  ["O=[N+]([O-])c1ccc(N2N=C(c3c(O)ccc4ccccc34)CC2c2ccc(Cl)cc2)c([N+](=O)[O-])c1 (stereo not given)", "No"],
  ["O=C1CCC(=O)N1n1c(Cc2ccccc2)n[nH]c1=O", "No"],
  ["CCNC(=O)OCC1C2=C(C(=O)C(C)=C(N)C2=O)N2CC3C(N3C)C12OC (stereo not given)", "No"],
  ["COC1=CC(=O)c2c(c(-c3csc(C)n3)cn2C)C1=O", "No"],
  ["COc1cccc2c1C(=O)c1c(O)c3c(c(O)c1C2=O)C[C@@](O)(/C(C)=N/NC(=O)c1ccccc1)C[C@@H]3OC1CC(N)C(O)C(C)O1 (stereo not given in full)", "Yes"],
  ["COc1ccc(C(=O)C(Br)C(Br)C(=O)O)cc1 (stereo not given)", "No"],
  ["CC(O)CNC1=CC(=O)C(=O)c2ccccc21 (stereo not given)", "No"],
  ["CC(C)=C1C(=O)C[C@@]2(C)C[C@H]3OC3(C)CC/C=C(/C)CCC12 (stereo not given in full)", "No"],
  ["NCCN(CCN)/[N+]([O-])=N/O", "No"],
  ["C=C1C(=O)OC2CC(C)C(C(O)CC(C)O)=CCC12 (stereo not given)", "No"],
  ["NNC(=O)Nc1nc2ccc(NN)cc2[nH]1", "No"],
  ["C[C@]12C(=O)C=CCC1=CC[C@@H]1[C@@H]2[C@H]2CC3(O)C(=O)O[C@@]4(C)[C@H]5C[C@@]6(C)[C@@H]7[C@@]2(O)[C@]1(OC[C@H]6C(=O)O5)O[C@]734 (stereo not given in full)", "No"],
  ["Cc1cc(NS(=O)(=O)c2ccc(/N=N/c3c(Nc4ccccc4)nn(-c4ccc(S(=O)(=O)Nc5ccncn5)cc4)c3C)cc2)no1", "No"],
  ["CSc1ccc(/C=C2\\N=C(c3ccccc3)N(/N=C/c3cc4cc(C)ccc4nc3Cl)C2=O)cc1", "No"],
  ["COC(=O)[C@H]1CO[C@H]2C/C(C)=C/CC/C(C)=C/CC[C@@]3(C)O[C@@H]3C[C@H]21", "No"],
  ["COc1cc(C2SC(=N)Nc3c2c(C)nn3C(=O)c2ccccc2O)cc(OC)c1OC (stereo not given)", "No"],
  ["CCCCCC(=O)OC[n+]1cccc(-c2c(COC(=O)NC(C)C)c(COC(=O)NC(C)C)c3n2CCC3)c1", "No"],
  ["Cn1ccnc1Sc1ccc(/C=N\\NC(=O)c2cccc(F)c2)cc1[N+](=O)[O-]", "No"],
  ["CC(C)c1cc(C(F)(F)F)nc(NNc2nc(C(C)C)cc(C(F)(F)F)n2)n1", "No"],
  ["CC1CC/C(=C\\c2ccc(F)cc2)C2=C1C(c1ccc(F)cc1)N1C(=O)CSC1=N2 (stereo not given)", "No"]
]}
